Test System: Mrgpra2b (Mus musculus, UniProt Q91WW4)
Sequence (Q91WW4 whole entry): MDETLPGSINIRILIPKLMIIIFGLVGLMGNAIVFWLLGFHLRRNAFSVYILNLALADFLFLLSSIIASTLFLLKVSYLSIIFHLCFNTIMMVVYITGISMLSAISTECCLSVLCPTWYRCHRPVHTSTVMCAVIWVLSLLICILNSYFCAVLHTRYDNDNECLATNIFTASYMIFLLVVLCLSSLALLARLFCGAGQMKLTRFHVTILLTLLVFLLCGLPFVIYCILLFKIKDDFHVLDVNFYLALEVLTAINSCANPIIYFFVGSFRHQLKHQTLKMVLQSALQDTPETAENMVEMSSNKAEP
Assay Info: FLIPR intracellular Ca2+ mobilization, HEK cells expressing Mrgpra2b
Type: cell-based
Bridges are numbered along the chain shown (N, C = ends). Where no end group is shown, it is not given here.
Endpoint Label: EC50 (µM)
# unit: µM | format: bare number

Look up and report measured EC50 for this entry: FLPKTLRKFFCRIRGGRCAVLNCLGKEEQIGRCSNSGRKCCRKKK (disulfide 11-40, 18-33, 23-41) [mBD14]
18.7

Note down EC50 recorded for KKINNPVSCLRKGGRCWNRCIGNTRQIGSCGVPFLKCCKRK (disulfide 9-37, 16-30, 20-38) [mBD3]
42.8
